- Tested on: NCI-H23 lung
- protocol: NCI-60 one-dose screen, 48 h (100 = growth as untreated, 0 = no growth, -100 = all killed)
- protocol conditions: 10 µM
- Procedure: Growth inhibition of the NCI-H23 human Non-Small Cell Lung tumor cell line is measured as a screen for anti-cancer activity. Cells are grown in 96 well plates and exposed to the test compound for 48 hours. Compounds are tested at a single concentration, which is 10^-5 M for most compounds. The reported endpoint is percent growth (GI% or GIPRCNT), where numbers from 0 - 100% represent growth inhibition, and numbers from -100% - 0 represent cell death. […]
This is part of a sample that, as a whole, favours compounds with a hit. Of some 83,000 tested, about 20% had one in any assay.
Answer each item with its documented growth.
Give bare numbers, in %.

Completed entries (count: 4):
- molecule: "Oc1ccccc1O"
  growth (%): 97.7
- molecule: "O=C(NCCNC(=O)c1ccc(Cl)cc1Cl)c1ccc(Cl)cc1Cl"
  growth (%): 114
- molecule: "CC1CCC(C(=O)O)N1 (stereo not drawn)"
  growth (%): 89.2
- molecule: "O=[N+]([O-])c1cccc(N=Nc2ccc(O)cc2O)c1"
  growth (%): 74.3

Kindly give each listed record's growth.
1. Nc1nc(OCc2ccccc2)c2[nH]cnc2n1
2. CCCOC(=O)C(O)c1ccccc1 (stereo not drawn)

[93.6, 106]

---

Answer each item with its documented growth.
- Tested on: UACC-62 melanoma
- protocol: NCI-60 one-dose screen, 48 h (100 = growth as untreated, 0 = no growth, -100 = all killed)
- protocol conditions: 10 µM unless noted
- Method: Growth inhibition of the UACC-62 human tumor cell line is measured as a screen for anti-cancer activity. Cells are grown in 96 well plates and exposed to the test compound for 48 hours. Compounds are tested at a single concentration, which is 10^-5 M for most compounds. The reported endpoint is percent growth (GI% or GIPRCNT), where numbers from 0 - 100% represent growth inhibition, and numbers from -100% - 0 represent cell death. For example, a value of 40 represents 60% growth inhibition. […]
Compounds without any hit were thinned out: in the full panel of roughly 83,000, 20% have a hit.
Answers are plain numbers, in %.

Completed entries (count: 5):
- smiles string: "OCCN(CCO)C(=S)S"
  growth [%]: 91.7
- smiles string: "Cc1nc2ccccc2c2nnc(SCC(=O)N(Cc3ccccc3)c3ccccc3)n12"
  growth [%]: 84.7
- smiles string: "Cc1cc(N)c(S(=O)(=O)O)c(N)c1"
  growth [%]: 92.4
- smiles string: "CC(=O)NC(N)=S"
  growth [%]: 109
- smiles string: "O=[N+]([O-])c1ccc(-c2ncc(-c3ccc(Br)cc3)o2)cc1"
  growth [%]: 93.3

Kindly give each listed record's growth.
1. CCCCCC(C)(CC(=O)O)CC(=O)O
2. Cc1cc(C)c(CC(=O)O)c(C)c1
3. CCOC(=O)Nc1nn[nH]n1

1: 119; 2: 108; 3: 99.3

Kindly give each listed record's growth.
1. COc1cccc(COC(=O)Nc2ccccc2)c1OC
2. COc1cc([C@@H]2c3cc4c(cc3[C@H](O)[C@H]3COC(=O)[C@H]23)OCO4)cc(OC)c1OC
3. CC(=O)N(C)c1ccc([N+](=O)[O-])cc1
4. CCOC(=O)c1cc(/C=C/c2ccc(Cl)cc2Cl)on1

1. 94.4
2. 40.5
3. 104
4. 48.7

Please give the measured growth for this compound: CCNc1nc2c(cnn2C)c(=O)[nH]1 107

---

- System: LOX IMVI melanoma
- protocol: NCI-60 one-dose screen, 48 h (100 = growth as untreated, 0 = no growth, -100 = all killed)
- protocol conditions: 10 µM
The panel holds about 83,000 compounds, 20% with a hit somewhere; the sample as a whole holds those more often. Activity calls are given as the source filed them. Rule for the calls: active = growth percent below 10; inactive = the rest. Where a SMILES comes first, the peptide text is derived from it. Bridges are numbered along the chain shown (N, C = ends). [ ]: non-standard residue; d: D form. The star is where a group is joined. ξ: configuration not given here. ξNMePhe(4-NMe2) = CNC(Cc1ccc(N(C)C)cc1)C(=O)O; Picolinoyl(3-OH) = O=C(c1ncccc1O)*; ξPip(4-oxo) = O=C1CCNC(C(=O)O)C1; Phg = N[CH](C(=O)O)c1ccccc1; Abu = CC[CH](N)C(=O)O
Answer each item with its documented growth.

Kindly give each listed record's growth.
1. CCOC(=O)C1=C(Nc2ccc(Br)cc2)C(=O)N(CC)C1
2. O=[N+]([O-])c1ccc(N=Nc2ccccc2)cc1
3. CCC1NC(=O)C(NC(=O)c2ncccc2O)C(C)OC(=O)C(c2ccccc2)NC(=O)C2CC(=O)CCN2C(=O)C(Cc2ccc(N(C)C)cc2)N(C)C(=O)C2CCCN2C1=O (configuration not stated) (tested in a mixture with another compound) ({Picolinoyl(3-OH)}-T[Abu]P[ξNMePhe(4-NMe2)][ξPip(4-oxo)][Phg]; ester 1-C; configuration not given here)

["94.3% (inactive)", "92% (inactive)", "49.2% (inactive)"]

Kindly give each listed record's growth.
1. CC1(C)Nc2cccc3c(N=Nc4ccc(N=Nc5ccccc5)c5ccccc45)ccc(c23)N1
2. Cc1ccc(C)n1-c1ccsc1C(=O)NNC(=O)CCl
3. O=C(O)c1cc([N+](=O)[O-])ccc1Cl
4. NC(C(=O)O)C(O)c1ccco1 (configuration not stated)
5. Cc1nc2ccccc2c2nnc(SCC(=O)N(Cc3ccccc3)c3ccccc3)n12

77.6% (inactive)
16.4% (inactive)
99.5% (inactive)
103% (inactive)
91.6% (inactive)

Kindly give each listed record's growth.
1. O=C(Nc1cccc(NC(=O)Nc2cc(C(F)(F)F)ccc2Cl)c1)Nc1cc(C(F)(F)F)ccc1Cl
2. CC(=O)c1ccc(C(C)(C)C)cc1
3. Cc1cc(=O)[nH]c(NN=C2CCCC2)n1
4. CCCCN(CCCC)CCCO

["10.2% (inactive)", "98.5% (inactive)", "110% (inactive)", "101% (inactive)"]

Kindly give each listed record's growth.
1. CCS(=O)(=O)c1cc(=O)[nH]c(=O)[nH]1
2. C#CCSc1nnnn1-c1ccc(Br)c(C)c1
3. CCOc1ccc2[nH]c(=S)sc2c1
4. CC(O)COc1ccc(-c2ccccc2)cc1 (configuration not stated)
5. O=[N+]([O-])c1ccc(-c2ncc(-c3ccc(Br)cc3)o2)cc1

1. 101% (inactive)
2. 97.4% (inactive)
3. 98.6% (inactive)
4. 101% (inactive)
5. 104% (inactive)

Kindly give each listed record's growth.
1. O=C1OC[C@H]2[C@H](c3ccc(O)c(O)c3)c3cc(O)c(O)cc3C[C@H]12
2. CC1(c2ccccc2)NC(=O)NC1=O (configuration not stated)
3. C=CC(O)CCC (configuration not stated)
4. O=C1C=C(Nc2ccc([N+](=O)[O-])cc2)c2ccccc2C1=O
5. CCCNc1ccc(C2=NCCCN2)cc1

1: 113% (inactive); 2: 109% (inactive); 3: 98.6% (inactive); 4: 9.66% (active); 5: 95.1% (inactive)

---

- System: RPMI-8226 leukemia
- protocol: NCI-60 one-dose screen, 48 h (100 = growth as untreated, 0 = no growth, -100 = all killed)
- protocol conditions: 10 µM
The panel holds about 83,000 compounds, 20% with a hit somewhere; the sample as a whole holds those more often.
Answer each item with its documented growth.
Answers are plain numbers, in %.

Completed entries (count: 2):
- compound: "CCCNC(=O)c1ccc(S(N)(=O)=O)cc1"
  growth, %: 96.9
- compound: "S=c1[nH]ccn1-c1ccccc1Cl"
  growth, %: 95.6

Kindly give each listed record's growth.
1. C#Cc1cccc(NC(=O)c2ccc(Cl)cc2Cl)c1
2. C/C(=C\c1cc(Cl)ccc1OCC(=O)O)[N+](=O)[O-]
3. CN(C)c1ccc(C(c2ccc(O)cc2)c2ccc(N(C)C)cc2)cc1
4. CCCC1(c2ccccc2)NC(=O)NC1=O (configuration not stated)

1. 78.1
2. 81.5
3. 80.1
4. 101

Kindly give each listed record's growth.
1. C=CCNC(=O)c1ccc(OC)cc1
2. CN(C)CCC(=O)c1ccc(O)cc1

1. 92.4
2. 89.6

---

Answer each item with its documented growth.
- System: SF-539 CNS
- protocol: NCI-60 one-dose screen, 48 h (100 = growth as untreated, 0 = no growth, -100 = all killed)
- protocol conditions: 10 µM
About 83,000 compounds went through this panel and 20% of them were active in at least one assay; those are over-represented in the sample as a whole.
Answers are plain numbers, in %.

Completed entries (count: 3):
- compound: "CC(=O)NCc1cc(C)c(C)cc1C"
  result unit: "%"
  growth: 102
- compound: "Cc1ccc(C(=O)N/N=C/c2ccc3c(c2)OCO3)cc1"
  result unit: "%"
  growth: 103
- compound: "Cc1cc(Cc2cc(C)c(N)cc2N)c(N)cc1N"
  result unit: "%"
  growth: 103

Kindly give each listed record's growth.
1. COc1cc2nn(-c3ccccc3N)nc2cc1OC
2. O=C(CS)Nc1ccc2ccccc2c1

1. 96.5
2. 99.5

Kindly give each listed record's growth.
1. NCCC(=O)c1ccc(Cl)cc1
2. Cc1cc(C)cc(NCCC#N)c1
3. CCOC(=O)Nc1nn[nH]n1
4. COc1cc(/C=C/C(=O)c2ccccc2)cc(OC)c1OC
5. CCOC(=O)C1=C(C)NC(=O)NC1c1cccs1 (centres undefined)
6. N#CC(=Nc1cccc(F)c1)C1=C(O)c2ccccc2C1=O
7. CC1=NN(c2ccccc2)C(=O)/C1=C\N1CC(=O)NC1=S

1: 104; 2: 104; 3: 97.7; 4: 80.8; 5: 103; 6: 95.6; 7: 109

Kindly give each listed record's growth.
1. Nc1ncnc2[nH]ncc12
2. CC1(C)OC(=O)C(c2ccsc2)C(=O)O1

35.6
98.9
